System: blackgrass
Experiment: Test A preemergence
Format: in vivo, Alopecurus myosuroides
Settings: Alopecurus myosuroides, pre-emergence, 240 h, 500 g ai/ha, visual injury after 10 days, 0 to 100 scale, 0 is no effect, 100 is complete control, read-out: Plant response rating, Blackgrass
Attribute Measured: pest or weed control at 500 g/ha (%)
Quick reminder: number only, in %, skip the unit.

In: Which pest or weed control at 500 g/ha reading was recorded for the compound "CC(C)c1ncn(-c2cc3c(c(C(=O)N4C[C@H](C)Oc5c(Cl)cccc54)c2)OCC3)n1" ?
Out: 90

In: Same question, "Cc1cccc2c1O[C@@H](C)CN2C(=O)c1cccc(-n2cn[nH]c2=O)c1" this time
Out: 50

In: Same question, "C[C@H]1CN(C(=S)c2cccc(-n3cncn3)c2)c2cccc(Cl)c2O1" this time
Out: 90

In: Same question, "Cc1cccc2c1O[C@@H](C)CN2C(=O)c1cccc(-n2cnn(C)c2=O)c1" this time
Out: 90

====

Test system: blackgrass
Assay: Test C postemergence
Assay type: in vivo, Alopecurus myosuroides
Conditions: 500 g ai/ha, postemergence, 10 days, 0 to 100 scale (0 no effect, 100 complete control)
Values of Plant response rating, Blackgrass greater than or equal to 50 map to YES; values below map to NO.

Check out these entries, answers already filled in.
> print(dat)
                                   compound  class.name
1  COc1ncn(-c2cccc(C(=O)N3C[C@H](C)Oc4c(Cl)cccc43)c2)n1 [Compound 310]         YES
2  CCOC(=O)c1ncn(-c2ccc(C)c(C(=O)N3C[C@H](C)Oc4c(Cl)cccc43)c2)n1 [Compound 342]         YES
3  CC(C)Oc1ncn(-c2cccc(C(=O)N3C[C@H](C)Oc4c(Cl)cccc43)c2)n1 [Compound 312]          NO
4  Cc1ncc(-c2cccc(C(=O)N3C[C@H](C)Oc4c(Cl)cccc43)c2)o1 [Compound 352]          NO

In: For this compound, is measured Plant response rating, Blackgrass 50 or higher? CC(C)c1ncn(-c2ccc([S+](C)[O-])c(C(=O)N3C[C@H](C)Oc4c(Cl)cccc43)c2)n1 (stereo partly shown) [Compound 394]
Out: YES

In: Same question, Cc1ncn(-c2cccc(C(=O)N3C[C@H](C)Oc4c(Cl)cccc43)c2)n1 [Compound 326] this time
Out: YES

In: Same question, CCc1cc(C(=O)N2C[C@H](C)Oc3c(Cl)cccc32)cc(-n2cncn2)c1 [Compound 332] this time
Out: YES

====

System: blackgrass
Experiment: Test C postemergence
Format: in vivo, Alopecurus myosuroides
Details: Postemergence, 125 g ai/ha; 0 to 100 scale (0 no effect, 100 complete control), 10 days
Plant response rating, Blackgrass reference
// no unit string in output, number only

Worked examples follow.
> print(dat)
                                   compound  observed.measurement
1  Cc1cccc2c1OC(C(F)(F)F)CN2C(=O)c1cccc(-n2cnc(C(C)C)n2)c1 (racemic)                    90
2  COc1ccc(-n2cnc(C3CC3)n2)cc1C(=O)N1C[C@H](C)Oc2c(Cl)cccc21                    90
3  CC(C)c1ncn(-c2ccc(OS(=O)(=O)C(F)(F)F)c(C(=O)N3C[C@H](C)Oc4c(Cl)cccc43)c2)n1                     0
4  CC(C)c1ncn(-c2ccc(S(C)(=O)=O)c(C(=O)N3C[C@H](C)Oc4c(Cl)cccc43)c2)n1                     0
5  Cc1ncn(-c2ccc(F)c(C(=O)N3C[C@H](C)Oc4c(C)cccc43)c2)n1                    80
6  CC(=O)N(C)c1ncn(-c2cccc(C(=O)N3C[C@H](C)Oc4c(C)cccc43)c2)n1                    30

Okay, next one:
In: Write down the reported Plant response rating, Blackgrass of "Cc1ncc(-c2cccc(C(=O)N3C[C@H](C)Oc4c(Cl)cccc43)c2)o1" , test system: blackgrass.
Out: 0

====

Tested on: pigweed, palmer
Assay: Test C postemergence
Type: in vivo, Amaranthus palmeri
Details: 500 g ai/ha, postemergence, 10 days, 0 to 100 scale (0 no effect, 100 complete control)
Plant response rating, Pigweed, Palmer reference
// no unit string in output, number only

Worked examples follow.
> print(dat)
                                   compound  observed.measurement
1  Cc1ccc(-n2cnc(C3(C#N)CCC3)n2)cc1C(=O)N1C[C@H](C)Oc2c(Cl)cccc21                   100
2  CC(C)c1ncn(-c2cc(C(=O)N3CC(C(F)(F)F)Oc4c(Cl)cccc43)ccn2)n1 (racemic) [Compound 329]                    80
3  Cc1ccc(-n2cnc(C(C)C)n2)cc1C(=O)N1CC(C(F)(F)F)Oc2c(Cl)cccc21 (single isomer, unassigned) [Compound 291]                   100

Okay, next one:
In: Which Plant response rating, Pigweed, Palmer reading was recorded for the compound Cc1cccc2c1OC(C(F)(F)F)CN2C(=O)c1cccc(-n2cnc(C(C)(C)C)n2)c1 (stereo not shown) ?
Out: 80

====

System: barnyardgrass
Experiment: Test C postemergence
Format: in vivo, Echinochloa crusgalli
Conditions: Postemergence, 125 g ai/ha; 0 to 100 scale (0 no effect, 100 complete control), 10 days
Attribute Measured: Plant response rating, Barnyardgrass
// no unit string in output, number only

Worked examples follow.
> print(dat)
                                   compound  observed.measurement
1  Cc1cccc2c1OC(C(F)(F)F)CN2C(=O)c1cccc(-n2cnc(C(C)C)n2)c1 (single isomer, unassigned) [Compound 302]                    10
2  COC[C@H]1CN(C(=O)c2cc(-n3cnc(C4CCC4)n3)cc3c2OCCO3)c2cccc(Cl)c2O1                    20
3  Cc1cccc2c1OC(C(F)(F)F)CN2C(=O)c1cccc(-n2cnc(C(C)C)n2)c1 (racemic) [Compound 301]                    10
4  Cc1ccc(-n2cnc(CC#N)n2)cc1C(=O)N1C[C@H](C)Oc2c(Cl)cccc21                    50
5  COC(=O)c1ncn(-c2ccc(C)c(C(=O)N3C[C@H](C)Oc4c(Cl)cccc43)c2)n1                    60
6  Cc1ccc(-n2cnc(C3(C#N)CCC3)n2)cc1C(=O)N1C[C@H](C)Oc2c(Cl)cccc21                    20
7  Cc1cccc2c1O[C@@H](C)CN2C(=O)c1cccc(-n2cnc([N+](=O)[O-])n2)c1                    10

In: Which Plant response rating, Barnyardgrass reading was recorded for the compound "COc1ncn(-c2cccc(C(=O)N3C[C@H](C)Oc4c(Cl)cccc43)c2)n1" ?
Out: 20

====

System: wheat
Experiment: Test A preemergence
Assay type: in vivo, Triticum aestivum
Conditions: 500 g ai/ha, 0 to 100 scale (0 no effect, 100 complete control), 10 days
Attribute Measured: Plant response rating, Wheat
// no unit string in output, number only

> print(dat)
                                   compound  observed.measurement
1  CC(C)c1ncn(-c2ccc(O)c(C(=O)N3C[C@H](C)Oc4c(Cl)cccc43)c2)n1                    10

In: Which Plant response rating, Wheat reading was recorded for the compound "Cc1ccc(-n2cnc(C(C)C)n2)cc1C(=O)N1C[C@H](C)Oc2c(C)cccc21" ?
Out: 80

In: Same question, "CC(C)c1ncn(-c2cccc(C(=O)N3C[C@H](C)Oc4c(Cl)cccc43)c2)n1" this time
Out: 80

In: Same question, CC1CN(C(=O)c2cccc(-n3cncn3)c2)c2c(F)cccc2O1 (centres unmarked) this time
Out: 10

In: Same question, "Cc1cccc2c1O[C@@H](C)CN2C(=O)c1ccc(F)c(-n2cncn2)c1" this time
Out: 60

In: Same question, "CCCCc1ncn(-c2cccc(C(=O)N3C[C@H](C)Oc4c(C)cccc43)c2)n1" this time
Out: 10

In: Same question, "C[C@H]1CN(C(=O)c2cccc(-n3cncn3)c2)c2cccc(C(F)(F)F)c2O1" this time
Out: 20

====

Plant response rating, Ryegrass, Italian reference
Tested on: ryegrass, Italian
Experiment: Test A postemergence
Format: in vivo, Lolium multiflorum
Conditions: 500 g ai/ha, Postemergence; 0 to 100 scale
Text: […]

Worked examples follow.
> print(dat)
                                   compound  observed.measurement
1  CC1CN(C(=O)c2cc(-n3cncn3)ccc2F)c2cccc(Cl)c2O1 (stereo not shown)                   100
2  CC1CN(C(=O)c2cccc(-n3cncn3)c2)c2cccc(C3CC3)c2O1 (stereo not shown)                    50
3  CCC1CN(C(=O)c2cncc(-n3cncn3)c2)c2cccc(Cl)c2O1 (racemic)                    40

In: Which Plant response rating, Ryegrass, Italian reading was recorded for the compound "Cc1cccc2c1O[C@@H](C)CN2C(=O)c1cc(-n2cncn2)ccc1Cl" ?
Out: 60
